Hello, the source for this data is patent US12662479B2, in case you need it.

Reported values of DC50 for individual entries
Target: HiBit-BRG1 fusion protein (Homo sapiens, UniProt P51532)
Construct: expressed in transfected cells
Sequence (P51532 whole entry, the tested form may be a part): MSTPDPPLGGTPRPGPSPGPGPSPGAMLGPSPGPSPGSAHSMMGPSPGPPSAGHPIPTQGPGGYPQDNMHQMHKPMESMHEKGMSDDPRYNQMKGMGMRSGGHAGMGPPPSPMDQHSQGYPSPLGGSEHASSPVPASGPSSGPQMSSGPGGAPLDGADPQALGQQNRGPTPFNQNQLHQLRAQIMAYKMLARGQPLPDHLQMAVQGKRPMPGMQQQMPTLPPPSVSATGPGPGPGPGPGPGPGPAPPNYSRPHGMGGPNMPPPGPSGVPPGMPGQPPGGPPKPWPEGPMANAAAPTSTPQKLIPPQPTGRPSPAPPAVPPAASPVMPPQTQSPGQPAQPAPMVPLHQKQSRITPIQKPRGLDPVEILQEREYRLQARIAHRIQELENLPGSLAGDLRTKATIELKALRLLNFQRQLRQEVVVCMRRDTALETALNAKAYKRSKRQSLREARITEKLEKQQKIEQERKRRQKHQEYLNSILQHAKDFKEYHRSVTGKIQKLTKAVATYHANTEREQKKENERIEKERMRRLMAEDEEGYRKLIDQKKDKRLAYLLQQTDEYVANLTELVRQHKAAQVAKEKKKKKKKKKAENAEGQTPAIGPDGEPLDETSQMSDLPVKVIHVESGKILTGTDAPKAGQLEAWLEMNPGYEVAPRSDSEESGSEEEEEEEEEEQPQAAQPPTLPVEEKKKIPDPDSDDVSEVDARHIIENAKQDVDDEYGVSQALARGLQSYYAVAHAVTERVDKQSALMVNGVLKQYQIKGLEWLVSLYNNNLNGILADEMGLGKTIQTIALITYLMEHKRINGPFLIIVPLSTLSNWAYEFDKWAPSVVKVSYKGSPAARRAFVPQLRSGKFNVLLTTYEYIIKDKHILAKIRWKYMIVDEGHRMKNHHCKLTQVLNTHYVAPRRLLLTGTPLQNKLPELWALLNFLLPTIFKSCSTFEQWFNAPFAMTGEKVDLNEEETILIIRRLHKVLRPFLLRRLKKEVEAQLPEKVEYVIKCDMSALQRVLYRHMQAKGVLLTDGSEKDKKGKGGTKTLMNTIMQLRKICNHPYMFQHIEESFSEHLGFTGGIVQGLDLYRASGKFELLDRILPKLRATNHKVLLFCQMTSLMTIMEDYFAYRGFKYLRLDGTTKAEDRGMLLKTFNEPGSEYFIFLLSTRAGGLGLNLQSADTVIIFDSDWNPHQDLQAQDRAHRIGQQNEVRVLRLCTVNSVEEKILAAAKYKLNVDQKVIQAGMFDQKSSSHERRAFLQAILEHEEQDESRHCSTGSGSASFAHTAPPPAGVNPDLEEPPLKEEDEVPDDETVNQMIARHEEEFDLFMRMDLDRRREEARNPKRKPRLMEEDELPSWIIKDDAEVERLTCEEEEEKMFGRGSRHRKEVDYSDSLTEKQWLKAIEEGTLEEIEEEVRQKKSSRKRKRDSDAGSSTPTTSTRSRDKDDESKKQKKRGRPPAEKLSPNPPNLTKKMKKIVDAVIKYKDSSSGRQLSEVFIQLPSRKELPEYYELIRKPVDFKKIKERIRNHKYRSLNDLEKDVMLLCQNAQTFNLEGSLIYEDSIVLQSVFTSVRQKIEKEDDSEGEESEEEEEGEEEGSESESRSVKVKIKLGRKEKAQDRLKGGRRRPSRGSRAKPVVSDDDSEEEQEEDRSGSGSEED
Test: HiBiT-BRG1 cell-based degradation assay (Nano-Glo HiBiT Lytic Detection, 24 h)
Conditions: HeLa cells expressing HiBit-BRG1 and LgBit, read-out: BRG1 HiBit Degradation IC50
Experimental: Procedure: A stable HeLa cell line expressing HiBiT-BRM was generated. On day 0, 5000 cells were seeded in 40 μL of media into each well of 384-well cell culture plates. […] The plates were shaken for 10 minutes at room temperature and the bioluminescence read using an EnVision plate reader (PerkinElmer). […] The degradation % was calculated using the following formula: % degradation=100%−100%×(LumSample−LumLC)/(LumHC−LumLC). […]

Worked cases, DC50 given:
CS(=O)(=O)n1ccc(C(=O)N[C@@H](COCc2ccc(CNC(=O)CCCCCCCCCCNc3cccc4c3C(=O)N(C3CCC(=O)NC3=O)C4=O)cc2)C(=O)Nc2nc(-c3ccccc3)cs2)c1 (stereo partly drawn) [Compound 214]	0.1 to 1 µM
CN(CCNC(=O)CN(C)c1cc(-c2cccc(-c3csc(NC(=O)CNC(=O)c4ccn(S(C)(=O)=O)c4)n3)c2)ccn1)CCNc1cccc2c1C(=O)N(C1CCC(=O)NC1=O)C2=O (stereo not drawn)	> 10 µM
CN(CCNc1ccc2c(c1)C(=O)N(C1CCC(=O)NC1=O)C2=O)C(=O)C1(c2cc(-c3cccc(-c4csc(NC(=O)CNC(=O)c5ccn(S(C)(=O)=O)c5)n4)c3)ccn2)CC1 (stereo not drawn)	> 10 µM
CS(=O)(=O)n1ccc(C(=O)NCC(=O)Nc2nc(C3CCCN(C(=O)CCCCCCCCCCNc4ccc5c(c4)C(=O)N(C4CCC(=O)NC4=O)C5=O)C3)cs2)c1 (stereo not drawn)	> 10 µM
Cc1ncsc1-c1ccc(CNC(=O)[C@H]2C[C@@H](O)CN2C(=O)[C@@H](NC(=O)COCCOCCOCCNC(=O)CCCOCC[C@H](NC(=O)c2ccn(S(C)(=O)=O)c2)C(=O)Nc2nc(-c3ccccc3)cs2)C(C)(C)C)cc1	> 10 µM

Could you tell me which DC50 is on file for Cc1ncsc1-c1ccc(CNC(=O)[C@@H]2C[C@@H](O)CN2C(=O)[C@@H](NC(=O)CN2CC3(CN(CC(=O)NCc4cccc(-c5cccc(-c6csc(NC(=O)CNC(=O)c7ccn(S(C)(=O)=O)c7)n6)c5)c4)C3)C2)C(C)(C)C)cc1.O=C(O)C(F)(F)F [Compound 166, trifluoroacetate] ?
> 10 µM

Could you tell me which DC50 is on file for CN(CC(=O)NCCCCS(=O)(=O)CCCNc1cccc2c1C(=O)N(C1CCC(=O)NC1=O)C2=O)c1cc(-c2cccc(-c3csc(NC(=O)CNC(=O)c4ccn(S(C)(=O)=O)c4)n3)c2)ccn1 (stereo not drawn) ?
> 10 µM

Could you tell me which DC50 is on file for CS(=O)(=O)n1ccc(C(=O)NCC(=O)Nc2nc(-c3cccc(-c4ccnc(C5(C(=O)NCCCCCCNc6ccc7c(c6)C(=O)N(C6CCC(=O)NC6=O)C7=O)CC5)c4)c3)cs2)c1 (stereo not drawn) ?
< 0.1 µM

Could you tell me which DC50 is on file for `Cc1ncsc1-c1ccc(CNC(=O)[C@@H]2C[C@@H](O)CN2C(=O)[C@@H](NC(=O)COCCOCC(=O)N2CCN(c3cc(-c4cccc(-c5csc(NC(=O)CNC(=O)c6ccn(S(C)(=O)=O)c6)n5)c4)ccn3)CC2)C(C)(C)C)cc1` ?
0.1 to 1 µM
